# protocolDescription: Antimicrobial activity against Waddlia chondrophila ATCC VR-1470 infected in Vero cells
# Type: functional, Waddlia chondrophila WSU 86-1044
parameter: MIC

# return MIC for each item in the list
1. CO/N=C(\C(=O)N[C@@H]1C(=O)N2C(C(=O)O)=C(CSc3nc(=O)c(O)nn3C)CS[C@H]12)c1csc(N)n1 [CEFTRIAXONE]
2. CC[C@H]1OC(=O)[C@H](C)[C@@H](O[C@H]2C[C@@](C)(OC)[C@@H](O)[C@H](C)O2)[C@H](C)[C@@H](O[C@@H]2O[C@H](C)C[C@H](N(C)C)[C@H]2O)[C@](C)(O)C[C@@H](C)CN(C)[C@H](C)[C@@H](O)[C@]1(C)O [AZITHROMYCIN]
3. C[C@H]1c2cccc(O)c2C(=O)C2=C(O)[C@]3(O)C(=O)C(C(N)=O)=C(O)[C@@H](N(C)C)[C@@H]3[C@@H](O)[C@@H]21.O [DOXYCYCLINE]
4. CC1COc2c(N3CCN(C)CC3)c(F)cc3c(=O)c(C(=O)O)cn1c23 (stereo unspecified) [OFLOXACIN]
5. CC1(C)S[C@@H]2[C@H](NC(=O)[C@H](N)c3ccccc3)C(=O)N2[C@H]1C(=O)O [AMPICILLIN]
6. O=C(O)c1cn(C2CC2)c2cc(N3CCNCC3)c(F)cc2c1=O [CIPROFLOXACIN]

Result:
1. > 32 µg/mL
2. 0.25 µg/mL
3. 0.25 µg/mL
4. > 16 µg/mL
5. > 32 µg/mL
6. > 16 µg/mL
